molecular target: spike protein of SARS-CoV-2 β strain on pseudovirus (SARS-CoV-2 (β strain)); experiment: cell-based or functional assay
assay.metric: IC50 of pseudovirus infection (luciferase) (ng/mL)
State the answer as a number, implicitly in ng/mL.

INPUT: For the binder Ab816 (antibody, V domains shown) VH: QVQLVQSGAEVKKPGESLMISCKASGYNFRNYWIAWVRQMPGKGLEWMGIIHPGDSDIRYRPSLQGHVTISADKSITTAYLQWGSLKASDTAMYYCTRITTDADSSGLFHYWGQGTLVTVSS VL: EIVLTQSPSTLSASVGDRVTITCRASQNIYTWLAWYQRKPGKAPKVLIYKASSLESGVPSRFSGSGSGTEFTLTISSLQPDDFATYYCQQYKSAWSFGQGTKVEIK , what IC50 of pseudovirus infection (luciferase) is on record?
OUTPUT: 9.5

INPUT: For the binder Ab765 (antibody, V domains shown) VH: QVQLVESGGGVVQPGRSLRLSCAASGFTFSDYAIHWVRQAPGRGLEPVALISYDGNNKYYADSVKGRFTISRDNSKNVLYLQMNSLRADDTAVYYCARDAEGGWVAALDYWGQGTLVTVSS VL: QSALTQPRSVSGSPGQSVTISCTGTSSDVGGYNYVSWYQHHPGKAPKVMIYEVSKRPSGVPDRFSGSKSGTTASLTISGLQAEDEADYYCCSYAGTYPYVFGTGTKVTVL , what IC50 of pseudovirus infection (luciferase) is on record?
OUTPUT: 4.5

INPUT: For the binder Ab803 (antibody, V domains shown) VH: EVQLVESGGGLVQPGRSLRVSCAASGFTFDDYAMHWVRQTPRKGLEWVAGISRNSAAIAYADSVKGRFTISRDNAKNSVFLQMNGLRADDTALYYCVKSPRYGWGSPDYSFDFWGRGTLVTVSS VL: DIQLTQSPSSLSASVGDRVTITCRASQNIGTYLNWYQQEPGKAPKLLIYAASSLQSGVPSRFSGSGSGTDFTLTISSLQPEDFATYCCQQSFTTPLTFGQGTKVEIK , what IC50 of pseudovirus infection (luciferase) is on record?
OUTPUT: 10.4

INPUT: For the binder Ab847 (antibody, V domains shown) VH: EVQLVQSGAEVKKPGASVKVSCKASGYTFTSYDIIWVRQATGQGLEWMGWMDPSRGTTGYAQTFQGRVTMTRDTSISTAYLELNSLTSEDTAVYYCVAHIVVLDRWFDPWGQGTLVTVSS VL: DIVMTQSPSSLSASVGDRVTITCQASQDIGNFLNWCQQKPGQAPKVLIYGASNLETGVPSRFSGSGSGTDFTFTISSLQPEDIATYYCQHYDNFPPRFTFGQGTKLDIK , what IC50 of pseudovirus infection (luciferase) is on record?
OUTPUT: 10.3
